FYI, the data here is from the array DNA melting data of Ke et al. (doi:10.1101/2024.01.08.574731).

Recorded measurements of folding enthalpy, one per entry
- Protocol Description: folding enthalpy; higher = less favourable; fluorescence melt of hairpins on a sequencing array, two-state fit
- Assay Context: sodium 0.088 M
Could you give me the number in kcal/mol? Just the number is fine.

Seq | Observed Property | Observed Measurement
GAACGCGAAAGCGGGTTC ((((((....)))..))) | folding enthalpy | -11.9
GCTGTGCGAAAGCCCAGC ((((.((....)).)))) | folding enthalpy | -28.1

Could you now consider this next sequence?
Quick one: folding enthalpy for GTGTTTCGAAAGAAGCAC (((.(((....))).))) ?
-38.1

====

- Protocol Description: folding enthalpy; higher = less favourable; fluorescence melt of hairpins on a sequencing array, two-state fit
- Assay Context: sodium 0.088 M
Recorded measurements of folding enthalpy, one per entry
Could you give me the number in kcal/mol? Just the number is fine.

Example results:
Seq | Unit Descriptor | Observed Measurement
GATCTGGCTCAGATC ((((((...)))))) | kcal/mol | -35.5
GCTTACGAAAGTACAGC ((((((....))).))) | kcal/mol | -23.4
GATCACTTACGTGATC ((((((....)))))) | kcal/mol | -38.1
GTGAAGGGAAACTTTCAC (((((.(....).))))) | kcal/mol | -24.8

Quick one: folding enthalpy for GTATAAGCGAAAGCTTAC (((..(((....)))))) ?
-9.03

Quick one: folding enthalpy for GGTATAGGAAACCATACC (((((.(....).))))) ?
-23.1
